Target: Lsp from E. coli (Escherichia coli)
Construct: The full-length Lsp clone from E. coli (residues 1-164); His6 with enterokinase cleavage site (pET19b) (N); made in house; host or cells: E. coli Lemo21 (DE3), pET19b vector
Sequence (P00804 whole entry, the tested form may be a part): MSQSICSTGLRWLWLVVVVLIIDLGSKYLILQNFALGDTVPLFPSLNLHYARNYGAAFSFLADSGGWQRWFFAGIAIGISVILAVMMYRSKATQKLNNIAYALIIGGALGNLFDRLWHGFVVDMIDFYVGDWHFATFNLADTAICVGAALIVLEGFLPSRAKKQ
Test: Lsp FRET activity assay, IC50 determination
Format: biochemical
testReadout: pIC50
Scale for pIC50: -log10 of concentration given in mol/L; no unit attached.

Tell me the measured pIC50 of CCC(CC)c1nnc(NC(=O)c2cc(OS(=O)(=O)F)ccc2[N+](=O)[O-])s1 [Sk054-144] , please.
4.19

Tell me the measured pIC50 of CCC(CC)c1nnc(NC(=O)c2ccc(NCCS(=O)(=O)F)cc2[N+](=O)[O-])s1 [Sk056-45-3] , please.
4.72

Tell me the measured pIC50 of CCC(CC)c1nnc(NC(=O)c2ccc(OS(=O)(=O)F)cc2O)s1 [Sk056-50-4] , please.
3.54

Tell me the measured pIC50 of CCC(CC)c1nnc(NC(=O)c2ccc(OS(=O)(=O)F)cc2[N+](=O)[O-])s1 [Sk056-45-1] , please.
4.34
